Test system: NCI-H358
PROCEDURE_TEXT: combination cScore with adagrasib (Bliss gap around IC50) (%PoC); higher = stronger additive effect
METRIC_NAME: combination cScore with adagrasib
The answer should be a number; do not append a unit.

CS(=O)(=O)CCNCc1ccc(-c2ccc3ncnc(Nc4ccc(OCc5cccc(F)c5)c(Cl)c4)c3c2)o1 [Lapatinib] + C=C(F)C(=O)N1CCN(c2nc(OC[C@@H]3CCCN3C)nc3c2CCN(c2cccc4cccc(Cl)c24)C3)C[C@@H]1CC#N; 11.3
COc1ncc(-c2ccc3nccc(-c4ccnnc4)c3c2)cc1NS(=O)(=O)c1ccc(F)cc1F + C=C(F)C(=O)N1CCN(c2nc(OC[C@@H]3CCCN3C)nc3c2CCN(c2cccc4cccc(Cl)c24)C3)C[C@@H]1CC#N; 5.98
CCc1c2c(nc3ccc(O)cc13)-c1cc3c(c(=O)n1C2)COC(=O)[C@]3(O)CC [SN-38] + C=C(F)C(=O)N1CCN(c2nc(OC[C@@H]3CCCN3C)nc3c2CCN(c2cccc4cccc(Cl)c24)C3)C[C@@H]1CC#N; -1.51
C[C@@H]1OCC2(CCN(c3cnc(Sc4ccnc(N)c4Cl)c(N)n3)CC2)[C@@H]1N [TNO155] + C=C(F)C(=O)N1CCN(c2nc(OC[C@@H]3CCCN3C)nc3c2CCN(c2cccc4cccc(Cl)c24)C3)C[C@@H]1CC#N; 9.32
COc1cccc2c1C(=O)c1c(O)c3c(c(O)c1C2=O)C[C@@](O)(C(C)=O)C[C@@H]3O[C@H]1C[C@H](N)[C@H](O)[C@H](C)O1 [Daunorubicin] + C=C(F)C(=O)N1CCN(c2nc(OC[C@@H]3CCCN3C)nc3c2CCN(c2cccc4cccc(Cl)c24)C3)C[C@@H]1CC#N; -0.64

Notebook entry, NCI-H358 assay: combination cScore with adagrasib of COc1cc(N2CCC(N3CCN(C)CC3)CC2)ccc1Nc1ncc(Cl)c(Nc2ccccc2S(=O)(=O)C(C)C)n1 [NVP-TAE684] + C=C(F)C(=O)N1CCN(c2nc(OC[C@@H]3CCCN3C)nc3c2CCN(c2cccc4cccc(Cl)c24)C3)C[C@@H]1CC#N = ?
3.66

Checklist item: combination cScore with adagrasib tested on NCI-H358, entry Oc1nc(-c2ccc(C(F)(F)F)cc2)nc2c1CSCC2 [XAV939] + C=C(F)C(=O)N1CCN(c2nc(OC[C@@H]3CCCN3C)nc3c2CCN(c2cccc4cccc(Cl)c24)C3)C[C@@H]1CC#N , value?
4.11

Field: combination cScore with adagrasib (NCI-H358). Entry: C=CC(=O)Nc1cc(Nc2nccc(-c3cn(C)c4ccccc34)n2)c(OC)cc1N(C)CCN(C)C [Osimertinib] + C=C(F)C(=O)N1CCN(c2nc(OC[C@@H]3CCCN3C)nc3c2CCN(c2cccc4cccc(Cl)c24)C3)C[C@@H]1CC#N
8.16

Give recorded combination cScore with adagrasib with NCI-H358 for the following compound: Cc1nc(Nc2ncc(C(=O)Nc3c(C)cccc3Cl)s2)cc(N2CCN(CCO)CC2)n1 [Dasatinib] + C=C(F)C(=O)N1CCN(c2nc(OC[C@@H]3CCCN3C)nc3c2CCN(c2cccc4cccc(Cl)c24)C3)C[C@@H]1CC#N
8.94

Hi! What's the reported combination cScore with adagrasib for CCS(=O)(=O)Nc1ccc2c(c1)/C(=C(/Nc1ccc(CN3CCCCC3)cc1)c1ccccc1)C(=O)N2 [Hesperadin] + C=C(F)C(=O)N1CCN(c2nc(OC[C@@H]3CCCN3C)nc3c2CCN(c2cccc4cccc(Cl)c24)C3)C[C@@H]1CC#N on NCI-H358?
0.47
